- assayRemarks: yeast display, Sf9 membrane polyspecificity reagent, FACS + sequencing; frameworks hold sequencing errors
reportedMetric: polyreactivity (PSR sort gate)

QVQLVESGGGLVQAGGSLRLSCAASGRTFGKNAMGWYRQAPGKEREFVAAITSRGGSTYYADSVKGRFTISRDNAKNTVYLQMNSLKPEDTAVYYCNREYKRPSQRTEHYYWGQGTQVTVSS ... low polyreactivity
QFQLVESVGGLVQAGGSLRLSCAATGRTSYVYLMVSYRAATGTEMELVAAITGSGGSTYYADSVKGRFTISRDNEKNNVYLQLNSLKPEDTAVYYCAKAYYSYEVYLGLSYVRRYVYWGQGTQVTVSS ... low polyreactivity
